Test system: Potassium voltage-gated channel subfamily H member 2, brain isoform KCNH2 3.1 (human)
Experiment: qHTS for Inhibitors of KCHN2 3.1: Mutant qHTS; also: % is scaled to controls: 0 for no effect and ±100 for the full control effect
Settings: U2OS KCNH2 3.1, thallium flux FluxOr; stronger effect = lower value
The campaign covered roughly 340,000 compounds. About 3,300 (0.97%) were called active. Many of the other results were omitted from the sample, so actives are more common in it than they were.
Property: activity change (%)
// return numeric value only (unit: %, not printed)

Illustrative cases are given below, each with its answer.
Molecule	activity change / %
CCOC(=O)C1(c2ccccc2)CCN(CC(O)c2ccc(NC(C)=O)cc2)CC1 (stereo unspecified)	-5.82
CC(Cc1ccccc1)NCCC(c1ccccc1)c1ccccc1 (stereo unspecified)	-112
CC(=O)NC(=O)NC(C)Cc1ccccc1 (stereo unspecified)	-18.9

So for `CNC(=O)O/N=C(\N)Cc1csc2ccc(Cl)cc12` , the logged activity change turned out to be 4.55

So for `COC(=O)C1=C(c2ccc(C(C)=O)cc2)C[C@@H]2CC[C@H]1N2C(=O)NCCNC(C)=O` , the logged activity change turned out to be 21.5

So for CCOC(=O)C1(Cc2ccc(Cl)cc2)CCN(C(C)CCn2cccn2)CC1 (stereo unspecified) , the logged activity change turned out to be -115

So for `OCC#CC[N+]1(CC#Cc2ccccc2)CCCC1` , the logged activity change turned out to be 13.7

So for CSC1=NP(=S)(SC)N(C)c2nc3n(c21)CCC3 (stereo unspecified) , the logged activity change turned out to be -5.66

So for `N#Cc1ccc(Cn2cc(C(=O)c3ccco3)c3ccccc32)cc1` , the logged activity change turned out to be -80.8

So for CSc1ccc(C(=O)C2CCCN(Cc3ccn[nH]3)C2)cc1 (stereo unspecified) , the logged activity change turned out to be -19

So for `O=c1c2ccccc2nc(/C=C/c2ccc(F)cc2)n1-c1ccccc1O` , the logged activity change turned out to be -2.48

====

Recorded measurements of activity change, one per entry
System: Potassium voltage-gated channel subfamily H member 2, brain isoform KCNH2 3.1 (human)
Assay: qHTS for Inhibitors of KCHN2 3.1: Mutant qHTS; also: % is scaled to controls: 0 for no effect and ±100 for the full control effect
Details: U2OS KCNH2 3.1, thallium flux FluxOr; stronger effect = lower value
About 3,300 (0.97%) of roughly 340,000 compounds were called active. Shown is part of a subset that was picked to be rich in actives.
// return numeric value only (unit: %, not printed)

Illustrative cases are given below, each with its answer.
Molecule	activity change (%)
COC(=O)C1=C(c2ccc(F)cc2OCc2ccccc2)C[C@@H]2CC[C@H]1N2C(=O)NCc1ccc(C(C)(C)C)cc1	-19.4
CC1=CC(=Cc2sc3ccccc3[n+]2C)C=C(C)O1	-4.47

So for CC1CC=CCC12C(=O)NC(=S)NC2=O (configuration not stated) , the logged activity change turned out to be 10.6

====

Recorded measurements of activity change, one per entry
Test system: Potassium voltage-gated channel subfamily H member 2, brain isoform KCNH2 3.1 (human)
Experiment: qHTS for Inhibitors of KCHN2 3.1: Mutant qHTS; also: % is scaled to controls: 0 for no effect and ±100 for the full control effect
Details: U2OS KCNH2 3.1, thallium flux FluxOr; stronger effect = lower value
Protocol: Many antipsychotic drugs that inhibit the neurotransmitter dopamine also bind to hERG1 channel which might help explain their antipsychotic activity but also produces cardiac side effects. […] U2OS cells were resuspended in cell media containing 10% fetal calf serum (FCS) at a concentration of 2 million cells / mL. […] A stimulation buffer was added to the plate and the second kinetic read (2 min) was obtained. […]
The campaign covered roughly 340,000 compounds. About 3,300 (0.97%) were called active. For the sample, actives were picked, then their nearest neighbours and some compounds at random.
// return numeric value only (unit: %, not printed)

Illustrative cases are given below, each with its answer.
Compound	activity change [%]
CCN1c2nc3c(C)cccn3c(=O)c2CC2(C(=O)N(C)C(=O)N(C)C2=O)C1C (centres undefined)	-4.08
COC(=O)CN1C(=O)C2(C(C(=O)OC)=C(N)Oc3ccccc32)C2=C1CC(C)(C)CC2=O (centres undefined)	-17.7
CN(C)c1nc(N(C)C)nc(N(C#N)CCCl)n1	-8.4
COc1cc(OC)cc(C2(C#N)CCN(C)CC2)c1	5.57
CC(C)c1ccc(OCC(=O)N2CCCN(C)CC2)cc1	10.3
CN1CCN(C(=O)COc2ccc(C(C)(C)C)cc2Br)CC1	-2.07

So for COP(=O)(OC)C(NC(=O)c1ccc(C)cc1)C(Cl)(Cl)Cl (centres undefined) , the logged activity change turned out to be 10.5

So for `CC(C)c1ccc(OCC(=O)N2CCN(C)CC2)c(Br)c1` , the logged activity change turned out to be -93.1

So for CC1C2Cn3c(nc4ccccc43)C1N(C)O2 (centres undefined) , the logged activity change turned out to be 20.5
